Cited source for all entries: ChEMBL document CHEMBL1156264

# system.under.test: IgG receptor FcRn large subunit p51 (Homo sapiens)
# method.summary: Inhibition of IgG binding to soluble human FcRn after 2 hrs by competition ELISA
Numbered stars: 1 amine (or outer) side, 2 acyl side, 3 side chain; on linkers, the order of the positions; unused ones are H or OH. Bridge positions count the residues as written; N and C are the ends. Square brackets hold non-standard residues; d marks the D form. Peptide text beside a SMILES is read from it. Phe(4-guanidino) = N=C(N)Nc1ccc(C[C@H](N)C(=O)O)cc1; X1 = O=C(C(=O)[*:2])[C@H](Cc1ccc(O)cc1)N[*:1]; NMeL = CN[C@@H](CC(C)C)C(=O)O; Pen = CC(C)(S)[C@H](N)C(=O)O; Sar = CNCC(=O)O
metric.name: pIC50
Answers are plain numbers, as −log10 of the molar value.

Observe how each entry below is paired with its result.
CC(=O)N[C@@H](CCCNC(=N)N)C(=O)N[C@@H](Cc1ccccc1)C(=O)N[C@H]1CSSC[C@@H](C(N)=O)NC(=O)[C@@H]2CCCN2C(=O)C(=O)[C@H](Cc2ccc(O)cc2)NC(=O)[C@H](CC(C)C)NC(=O)CNC(=O)CNC(=O)[C@H](Cc2ccccc2)NC(=O)[C@H](Cc2cnc[nH]2)NC(=O)CNC(=O)[C@H]([C@@H](C)O)NC1=O: 4.43
CC(=O)N[C@@H](CCCNC(=N)N)C(=O)N[C@@H](Cc1ccccc1)C(=O)N[C@@H]1C(=O)N[C@@H]([C@@H](C)O)C(=O)NCC(=O)N[C@@H](Cc2ccc(NC(=N)N)cc2)C(=O)NCC(=O)N(C)CC(=O)N(C)[C@@H](CC(C)C)C(=O)N[C@@H](Cc2ccc(O)cc2)C(=O)C(=O)N2CCC[C@H]2C(=O)N[C@H](C(N)=O)CSSC1(C)C (Ac-RF[Pen]TG[Phe(4-guanidino)]G[Sar][NMeL][X1]PC-NH2; disulfide 3-12): 6.00
CC(=O)N[C@@H](CCCNC(=N)N)C(=O)N[C@@H](Cc1ccccc1)C(=O)N[C@H]1CC(=O)NCCCC[C@@H](C(N)=O)NC(=O)[C@@H]2CCCN2C(=O)C(=O)[C@H](Cc2ccc(O)cc2)NC(=O)[C@H](CC(C)C)N(C)C(=O)CN(C)C(=O)CNC(=O)[C@@H](Cc2ccccc2)NC(=O)[C@H](Cc2c[nH]cn2)NC(=O)CNC(=O)[C@H]([C@@H](C)O)NC1=O: 5.72

API: the following record is the query input.
**Query** Request: pIC50, test system IgG receptor FcRn large subunit p51 (Homo sapiens), entry "CC(=O)N[C@@H](CCCNC(=N)N)C(=O)N[C@@H](Cc1ccccc1)C(=O)N[C@@H]1C(=O)N(C)[C@@H](C)C(=O)NCC(=O)N[C@@H](Cc2cnc[nH]2)C(=O)N[C@@H](Cc2ccccc2)C(=O)N[C@H]2CCCN(CC(=O)N(C)[C@@H](CC(C)C)C(=O)N[C@@H](Cc3ccc(O)cc3)C(=O)C(=O)N3CCC[C@H]3C(=O)N[C@H](C(N)=O)CSSC1(C)C)C2=O"
**Result** 5.96

###

# system.under.test: IgG receptor FcRn large subunit p51 (Homo sapiens)
# method.summary: Inhibition of IgG binding to soluble human FcRn after 2 hrs by competition ELISA
Assignment: determine reported pIC50 for the given compounds.
Answers are plain numbers, as −log10 of the molar value.

Observe how each entry below is paired with its result.
CC(=O)N[C@@H](CCCNC(=N)N)C(=O)N[C@@H](Cc1ccccc1)C(=O)N[C@@H]1C(=O)N[C@@H]([C@@H](C)O)C(=O)NCC(=O)N[C@@H](Cc2c[nH]cn2)C(=O)N[C@@H](Cc2ccccc2)C(=O)NCC(=O)N(C)CC(=O)N(C)[C@@H](CC(C)C)C(=O)N[C@@H](Cc2ccc(O)cc2)C(=O)C(=O)N2CCC[C@H]2C(=O)N[C@H](C(N)=O)CSSC1(C)C: 6.28
CC(=O)N[C@@H](CCC(N)=O)C(=O)N[C@@H](CCCNC(=N)N)C(=O)N[C@@H](Cc1ccccc1)C(=O)N[C@H]1CSSC[C@@H](C(=O)N[C@@H](CC(N)=O)C(=O)NCC(=O)N2CCC[C@H]2C(N)=O)NC(=O)[C@@H]2CCCN2C(=O)C(=O)[C@H](Cc2ccc(O)cc2)NC(=O)[C@H](CC(C)C)NC(=O)CNC(=O)CNC(=O)[C@H](Cc2ccccc2)NC(=O)[C@H](Cc2cnc[nH]2)NC(=O)CNC(=O)[C@H]([C@@H](C)O)NC1=O: 4.40

API: the following record is the query input.
**Query** Which pIC50 value belongs to "CC(=O)N[C@@H](CCCNC(=N)N)C(=O)N[C@@H](Cc1ccccc1)C(=O)N[C@@H]1C(=O)N[C@@H]([C@@H](C)O)C(=O)NCC(=O)N[C@@H](Cc2cnc[nH]2)C(=O)N[C@@H](Cc2ccccc2)C(=O)N[C@H]2CCCN(CC(=O)N(C)[C@@H](CC(C)C)C(=O)N[C@@H](Cc3ccc(O)cc3)C(=O)C(=O)N3CCC[C@H]3C(=O)N[C@H](C(N)=O)CSSC1(C)C)C2=O" ?
**Result** 6.37

###

# system.under.test: IgG receptor FcRn large subunit p51 (Homo sapiens, UniProt P55899)
# Sequence (P55899 whole entry): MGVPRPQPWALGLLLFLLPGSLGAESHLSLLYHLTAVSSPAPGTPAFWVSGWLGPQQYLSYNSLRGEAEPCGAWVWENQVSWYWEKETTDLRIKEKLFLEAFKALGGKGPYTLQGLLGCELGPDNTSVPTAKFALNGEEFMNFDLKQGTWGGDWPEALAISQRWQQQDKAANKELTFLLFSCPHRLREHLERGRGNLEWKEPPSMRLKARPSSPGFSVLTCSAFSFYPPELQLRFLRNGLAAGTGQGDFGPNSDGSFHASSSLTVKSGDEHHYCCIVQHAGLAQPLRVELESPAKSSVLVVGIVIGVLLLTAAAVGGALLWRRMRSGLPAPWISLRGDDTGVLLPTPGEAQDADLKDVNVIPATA
# method.summary: Binding affinity to soluble human FcRn at pH 6 by surface plasmon resonance assay
Numbered stars: 1 amine (or outer) side, 2 acyl side, 3 side chain; on linkers, the order of the positions; unused ones are H or OH. Bridge positions count the residues as written; N and C are the ends. Square brackets hold non-standard residues; d marks the D form. Peptide text beside a SMILES is read from it. Phe(4-guanidino) = N=C(N)Nc1ccc(C[C@H](N)C(=O)O)cc1; X1 = O=C(C(=O)[*:2])[C@H](Cc1ccc(O)cc1)N[*:1]; NMeL = CN[C@@H](CC(C)C)C(=O)O; Pen = CC(C)(S)[C@H](N)C(=O)O; Sar = CNCC(=O)O
metric.name: pKd
Numbers only, as −log10 of the molar value.

Observe how each entry below is paired with its result.
CC(=O)N[C@@H](CCCNC(=N)N)C(=O)N[C@@H](Cc1ccccc1)C(=O)N[C@@H]1C(=O)N[C@@H]([C@@H](C)O)C(=O)NCC(=O)N[C@@H](Cc2cnc[nH]2)C(=O)N[C@@H](Cc2ccccc2)C(=O)N[C@H]2CCCN(CC(=O)N(C)[C@@H](CC(C)C)C(=O)N[C@@H](Cc3ccc(O)cc3)C(=O)C(=O)N3CCC[C@H]3C(=O)N[C@H](C(N)=O)CSSC1(C)C)C2=O: 7.37
CC(=O)N[C@@H](CCCNC(=N)N)C(=O)N[C@@H](Cc1ccccc1)C(=O)N[C@@H]1C(=O)N[C@@H]([C@@H](C)O)C(=O)NCC(=O)N[C@@H](Cc2ccc(NC(=N)N)cc2)C(=O)NCC(=O)N(C)CC(=O)N(C)[C@@H](CC(C)C)C(=O)N[C@@H](Cc2ccc(O)cc2)C(=O)C(=O)N2CCC[C@H]2C(=O)N[C@H](C(N)=O)CSSC1(C)C (Ac-RF[Pen]TG[Phe(4-guanidino)]G[Sar][NMeL][X1]PC-NH2; disulfide 3-12): 7.21

API: the following record is the query input.
**Query** Which pKd value belongs to "CC(=O)N[C@@H](CCC(N)=O)C(=O)N[C@@H](CCCNC(=N)N)C(=O)N[C@@H](Cc1ccccc1)C(=O)N[C@H]1CSSC[C@@H](C(=O)N[C@@H](CC(N)=O)C(=O)NCC(=O)N2CCC[C@H]2C(N)=O)NC(=O)[C@@H]2CCCN2C(=O)C(=O)[C@H](Cc2ccc(O)cc2)NC(=O)[C@H](CC(C)C)NC(=O)CNC(=O)CNC(=O)[C@H](Cc2ccccc2)NC(=O)[C@H](Cc2cnc[nH]2)NC(=O)CNC(=O)[C@H]([C@@H](C)O)NC1=O" ?
**Result** 5.28

###

# system.under.test: IgG receptor FcRn large subunit p51 (Homo sapiens)
# method.summary: Binding affinity to soluble human FcRn at pH 7.4 by surface plasmon resonance assay
Numbered stars: 1 amine (or outer) side, 2 acyl side, 3 side chain; on linkers, the order of the positions; unused ones are H or OH. Bridge positions count the residues as written; N and C are the ends. Square brackets hold non-standard residues; d marks the D form. Peptide text beside a SMILES is read from it. Phe(4-guanidino) = N=C(N)Nc1ccc(C[C@H](N)C(=O)O)cc1; X1 = O=C(C(=O)[*:2])[C@H](Cc1ccc(O)cc1)N[*:1]; NMeL = CN[C@@H](CC(C)C)C(=O)O; Pen = CC(C)(S)[C@H](N)C(=O)O; Sar = CNCC(=O)O
metric.name: Kd
Record the result as number plus unit.

Observe how each entry below is paired with its result.
CC(=O)N[C@@H](CCCNC(=N)N)C(=O)N[C@@H](Cc1ccccc1)C(=O)N[C@@H]1C(=O)N[C@@H]([C@@H](C)O)C(=O)NCC(=O)N[C@@H](Cc2cnc[nH]2)C(=O)N[C@@H](Cc2ccccc2)C(=O)N[C@H]2CCCN(CC(=O)N(C)[C@@H](CC(C)C)C(=O)N[C@@H](Cc3ccc(O)cc3)C(=O)C(=O)N3CCC[C@H]3C(=O)N[C@H](C(N)=O)CSSC1(C)C)C2=O: 260 nM
CC(=O)N[C@@H](CCCNC(=N)N)C(=O)N[C@@H](Cc1ccccc1)C(=O)N[C@@H]1C(=O)N[C@@H]([C@@H](C)O)C(=O)NCC(=O)N[C@@H](Cc2ccc(NC(=N)N)cc2)C(=O)NCC(=O)N(C)CC(=O)N(C)[C@@H](CC(C)C)C(=O)N[C@@H](Cc2ccc(O)cc2)C(=O)C(=O)N2CCC[C@H]2C(=O)N[C@H](C(N)=O)CSSC1(C)C (Ac-RF[Pen]TG[Phe(4-guanidino)]G[Sar][NMeL][X1]PC-NH2; disulfide 3-12): 74 nM
CC(=O)N[C@@H](CCC(N)=O)C(=O)N[C@@H](CCCNC(=N)N)C(=O)N[C@@H](Cc1ccccc1)C(=O)N[C@H]1CSSC[C@@H](C(=O)N[C@@H](CC(N)=O)C(=O)NCC(=O)N2CCC[C@H]2C(N)=O)NC(=O)[C@@H]2CCCN2C(=O)C(=O)[C@H](Cc2ccc(O)cc2)NC(=O)[C@H](CC(C)C)NC(=O)CNC(=O)CNC(=O)[C@H](Cc2ccccc2)NC(=O)[C@H](Cc2cnc[nH]2)NC(=O)CNC(=O)[C@H]([C@@H](C)O)NC1=O: 37000 nM

The following compounds each have a reported value; give each one's Kd.
1. CC(=O)N[C@@H](CCCNC(=N)N)C(=O)N[C@@H](Cc1ccccc1)C(=O)N[C@@H]1C(=O)N(C)[C@@H](C)C(=O)NCC(=O)N[C@@H](Cc2cnc[nH]2)C(=O)N[C@@H](Cc2ccccc2)C(=O)N[C@H]2CCCN(CC(=O)N(C)[C@@H](CC(C)C)C(=O)N[C@@H](Cc3ccc(O)cc3)C(=O)C(=O)N3CCC[C@H]3C(=O)N[C@H](C(N)=O)CSSC1(C)C)C2=O
2. CC(=O)N[C@@H](CCCNC(=N)N)C(=O)N[C@@H](Cc1ccccc1)C(=O)N[C@@H]1C(=O)N[C@@H]([C@@H](C)O)C(=O)NCC(=O)N[C@@H](Cc2c[nH]cn2)C(=O)N[C@@H](Cc2ccccc2)C(=O)NCC(=O)N(C)CC(=O)N(C)[C@@H](CC(C)C)C(=O)N[C@@H](Cc2ccc(O)cc2)C(=O)C(=O)N2CCC[C@H]2C(=O)N[C@H](C(N)=O)CSSC1(C)C
3. CC(=O)N[C@@H](CCCNC(=N)N)C(=O)N[C@@H](Cc1ccccc1)C(=O)N[C@H]1CC(=O)NCCCC[C@@H](C(N)=O)NC(=O)[C@@H]2CCCN2C(=O)C(=O)[C@H](Cc2ccc(O)cc2)NC(=O)[C@H](CC(C)C)N(C)C(=O)CN(C)C(=O)CNC(=O)[C@@H](Cc2ccccc2)NC(=O)[C@H](Cc2c[nH]cn2)NC(=O)CNC(=O)[C@H]([C@@H](C)O)NC1=O

**Result**
1: 950 nM; 2: 170 nM; 3: 930 nM
